System: lipid-peroxide formation in cerebral homogenate
assay overview: Lipid-peroxide formation inhibiting activity (TBA method, cerebral homogenate)
Type: biochemical, Wistar strain male rat
particulars: rat cerebral homogenate, incubated 30 minutes at 37° C
Hi there, I'd appreciate the recorded IC50 for every entry that follows.
Numbers only, in µM.

molecule | tested target | reading unit | observed value
CC1C(=O)N(c2ccc(Cl)cc2)N=C1c1cccnc1 (stereo not drawn) [compound 17] | lipid-peroxide formation in cerebral homogenate | µM | 7.1
CCC1C(=O)N(c2ccccc2)N=C1c1cccnc1 (stereo not drawn) [compound 20] | lipid-peroxide formation in cerebral homogenate | µM | 29.4
O=C1CC(Cn2ccnc2)=NN1c1ccc(Cl)cc1 [compound 44] | lipid-peroxide formation in cerebral homogenate | µM | 22.7
O=C1CC(c2cccnc2)=NN1c1ccccc1 [Compound No. 1, 1-phenyl-3-(3-pyridyl)-2-pyrazolin-5-one] | lipid-peroxide formation in cerebral homogenate | µM | 23.6
CCc1ccc(N2N=C(Cn3ccnc3)CC2=O)cc1 [compound 42] | lipid-peroxide formation in cerebral homogenate | µM | 24.4
COc1ccc(N2N=C(Cc3cccnc3)CC2=O)cc1 [compound 26] | lipid-peroxide formation in cerebral homogenate | µM | 23.6

// for each molecule below, give its IC50
1. CCOC(=O)Cc1ccc(N2N=C(Cn3ccnc3)CC2=O)cc1 [compound 46]
2. O=C1CC(Cn2ccnc2)=NN1c1ccccn1 [compound 51]
3. O=C1CC(Cc2cccnc2)=NN1C1CCCCC1 [compound 30]
4. Cc1ccc(N2N=C(c3ccco3)CC2=O)cc1 [compound 33]
5. Cc1ccc(N2N=C(c3cccnc3)C(C)C2=O)cc1 (stereo not drawn) [compound 15]
6. O=C1CC(c2cccnc2)=NN1C1CCCCC1 [compound 11]
7. Cc1ccc(N2N=C(Cn3ccnc3)CC2=O)cc1 [compound 39]
8. O=C1CC(c2ccco2)=NN1C1CCCCC1 [compound 36]

Return:
1: 60.5; 2: 51.3; 3: 24; 4: 4.1; 5: 12.5; 6: 16.9; 7: 43; 8: 8.3

// for each molecule below, give its IC50
1. O=C1CC(Cn2ccnc2)=NN1c1ccccc1 [compound 38]
2. CCC1C(=O)N(c2ccc(Cl)cc2)N=C1Cn1ccnc1 (stereo not drawn) [compound 54]

Return:
1. 60.1
2. 37.8

// for each molecule below, give its IC50
1. COc1ccc(N2N=C(c3cccnc3)C(C)C2=O)cc1 (stereo not drawn) [compound 16]
2. CCc1ccc(N2N=C(c3cccnc3)CC2=O)cc1 [compound 3]
3. O=C1CC(Cn2ccnc2)=NN1c1ccc(Cl)c(Cl)c1 [compound 45]
4. O=C1CC(c2cccnc2)=NN1c1ccc(O)cc1 [Compound No. 10]
5. O=C1CC(c2ccco2)=NN1c1ccc(Cl)cc1 [compound 35]

Return:
1. 46.3
2. 4
3. 11
4. 102
5. 3.7
